# System: OCI-AML3 cells
# Assay Summary: OCI-AML3 cell growth inhibition, dose-response viability assay (CellTiterGlo)
# Assay type: cell-based
# Details: OCI-AML3 cells, 6 days of culture, CellTiterGlo; read-out: AML-3 EC50
Readout Name: EC50

Incoming: Recorded EC50 of Fc1cc(Br)ccc1/C=C/c1nc(COc2ccc(CCCCn3ccnn3)cc2)co1 [Compound 3A] , please.
Outgoing: < 0.05 µM
